Reference source for all entries: the supplement of paper PMC9170038

- Tested on: MS2 coat protein
- Experiment Summary: apparent KD of MS2 coat protein; higher = weaker reporter binding
- Condition Details: Eterna round: R107; input ligand: theophylline 2 mM
just bin them by apparent KD of MS2 coat protein: low: < 20 nM; moderate: ≥ 20 nM and < 50 nM; high: ≥ 50 nM

[[record]]
chain_sequence = "ACAUGAGGAUCACCCAUGUUAAACACAGAAGGAGCGUGAAGGAACACAGGUAGGUCGCUGUACUUAUUGAGUAUUCACUCGAUAC [JR_Nu_SSArginiA_Sub028]"
answer_label = "low"

[[record]]
chain_sequence = "ACAUGAGGACCGGAUACCAGCCACACAACAUGAGGAUCACCCAUGUCCCAUGUAUGAGGAGGCCCUUGGCAGCCGACAUACAUGA [Exclusion - Theophylline B #1]"
answer_label = "high"

[[record]]
chain_sequence = "AACAUGAGGAUCACCCAUGUGUCCUCGAAACGAGGACCGGUACGGCCGCCACUCGGCGUAUGUUGACGAAAAGUCAGCAUACGCA [Mat - Exclusion - Trytophan A - D11]"
answer_label = "high"

[[record]]
chain_sequence = "ACAUGAGGAUCACCCAUGUAAUAGCGAGAAGGAGCGCGUAAGGACGCAGGUAGGUCGCUCGUGGUCCGGCCGCAAGGCCGGACCA [#1 Same State - Arginine A Attempt #10 (HarryS)]"
answer_label = "low"

[[record]]
chain_sequence = "UUGCUCUCUUCGGCCGCCACUACACGCGAGUUGACGACUGGCGGACAUGAGGAUCACCCAUGUCAUAGGACCGGGAAUCACGCUG [theeternabot_sameState_MS2_Trp_B_11]"
answer_label = "low"

[[record]]
chain_sequence = "GCGAUGGAGCGAAGGAGCGGCUGUGACUACAUGAGGAUCACCCAUGUACGAUUGUAAGGUAGCCAGGUAGGUCGCGCUCCAUCGC [SSAB NP+V+V2 #18]"
answer_label = "moderate"

[[record]]
chain_sequence = "UCAUACAUGAGGAUCACCCAUGUUCGUGGGCGAGGACCGGUACGGCCGCCACUCGUACUAACGGUUUCUUAAACUUCCUUUCGAG [theeternabot_sameState_MS2_Trp_A_49]"
answer_label = "moderate"

[[record]]
chain_sequence = "UGUGCAGGAUGCGUAAAGGGUCUUGGGCAUCGAGGACCGGUACGGCCGCCACUCGGCUGUACAUGAGGAUCACCCAUGUCAGGGU [#1 Same State - Tryptophan A Attempt #20 (HarryS)]"
answer_label = "high"

[[record]]
chain_sequence = "GAACAUAAGGAUACUAUAAUAAGUACAGAAGGAGCGAGCGGAAGCUCAGGUAGGUCGCUGGGUAACAUGAGGAUCACCCAUGUUG [SSArg A #14 Road to perfection1]"
answer_label = "moderate"

[[record]]
chain_sequence = "ACGCCCAGGUAGGCUUAAUGGGAUAUGGAAGGAGCGCUGAUGCAAGCAGGUAGGUCGCCAACGGACAUGAGGAUCACCCAUGUAC [Same State - Arginine A (Freestyle 3)]"
answer_label = "moderate"


###

- System: MS2 coat protein
- Experiment Summary: apparent KD of MS2 coat protein; designed switch direction (-1 OFF switch, 1 ON switch): 1; higher = weaker reporter binding
- Condition Details: input ligand: none
Property Measured: apparent KD of MS2 coat protein (nM)

[[record]]
chain_sequence = "GGAUCAUGACGAGGAUAUGGUACAUGAGGAUCACCCAUGUAUGUACCACGACGGAAACGUCGAAUCCAGAAGGCGUCAUGAUCG [Mat - Same State NG 2 - JL mod - D39] (Eterna round: R96, puzzle: Same State NG 2)"
unit_of_measurement = "nM"
observed_result = 120

[[record]]
chain_sequence = "ACAUGAGGAUCACCCAUGUAGGCUCAGGAAACUGUGCCACAUGAGGAUAUGGAUCCUAAUUGGAUCCAGAAGGCAUGAUUUAUU [Fiskers NG3ss - 21] (Eterna round: R96, puzzle: Same State NG 3)"
unit_of_measurement = "nM"
observed_result = 1290

[[record]]
chain_sequence = "GGUAGGUUACUACCAGACAUGAGGAUCACCCAUGUAAAUGGGAAGGAUAUGGUACCGUUUCGGUACCAGAAGGUCCUAAGUGAG [JL SSNG3 1.48] (Eterna round: R96, puzzle: Same State NG 3)"
unit_of_measurement = "nM"
observed_result = 2280

[[record]]
chain_sequence = "UACUGAGUCGUAGGAUAUGUAGGAUAUGGCGAGAGCUAAGCUUGGAAGUCACUUCUGCCAGAAGGACAGAAGGACGACUCUCUC [pwkr ssNG2 2FMN + F9.14] (Eterna round: R96, puzzle: Same State NG 2)"
unit_of_measurement = "nM"
observed_result = 55.5

